These data points were gathered from PubChem BioAssay (NCI).

tested on: MCF7 breast; test: NCI tumour cell line growth inhibition, 48 h
Class MET: TGI at least 10 µM. Class NOT MET: TGI below 10 µM.

1. O=S(=O)(NCCNc1cc(-c2cn(-c3ccccc3)nc2-c2cccc(O)c2)ccn1)c1ccc(F)cc1	NOT MET
2. COc1ccc(-c2cc(=O)c3c(O)c(OC)c(O)cc3o2)cc1O	MET
3. CC(=O)NNc1nc(C)c(C(/C=C/c2ccccc2O)=N/NC(=O)c2ccncc2)s1	MET
4. CCC[CH2][Sn]([CH2]CCC)([O]C(=O)c1cccc(F)c1F)[O][Sn]([CH2]CCC)([CH2]CCC)[O]C(=O)c1cccc(F)c1F	NOT MET
5. CCOC(=O)Cc1nc2nn(Cc3ccccc3)cc2c(=O)[nH]1	MET

**Q:** Is TGI for COc1nc(C#CCCCC#N)nc(OC)n1 at or above 10 µM?
**A:** MET

**Q:** Is TGI for c1cncc(-c2cc(-c3cc(-c4cccnc4)n[nH]3)[nH]n2)c1 at or above 10 µM?
**A:** MET

**Q:** Is TGI for Cc1c2c(cc3c1[nH]c1ccccc13)C(c1ccc(F)cc1)=NCC2 at or above 10 µM?
**A:** NOT MET

**Q:** Is TGI for C=C1C(=O)O[C@H]2[C@H]1CC/C(Cn1cc(Cn3ccc4cc(Cl)ccc43)nn1)=C\CC[C@@]1(C)O[C@@H]21 at or above 10 µM?
**A:** NOT MET

**Q:** Is TGI for COc1ccc(OC)c2c(=O)cc(-c3ccccc3)[nH]c12 at or above 10 µM?
**A:** MET

**Q:** Is TGI for Cc1c(Cl)c(=O)oc2cc(OCC(=O)c3ccccc3)ccc12 at or above 10 µM?
**A:** MET

* * *

# log10(TGI) annotations
system: MDA-MB-435; assay: NCI tumour cell line growth inhibition, 48 h
Please note: log10 values; quantity TGI; unit µM.

1) C=C(CO)[C@H]1CC/C(C)=C/CC/C(C)=C/C/C=C(\C)[C@H](O)C1	1.55
2) Cc1cc(Nc2ncc(Cl)c(Nc3ccccc3S(=O)(=O)C(C)C)n2)c(OC(C)C)cc1C1CCNCC1	0.33
3) COc1cc(N)ccc1Nc1c2ccccc2nc2ccccc12	1.52
4) CCCN1C(=O)/C(=C/c2ccc(O)cc2)SC1=Nc1ccccc1	1.62
5) Cn1c(Cc2ccccc2)nc2cc3ccccc3cc21	1.90
6) CC(C)[Si](OCC/C=C/C1CCC(=O)C1C(O)C1CCCCC1)(C(C)C)C(C)C (configuration not stated)	1.54
7) CC(=O)C1=C(O)C2(O)C(=O)c3c(c(C)c4ccc(C)c(O)c4c3O)CC2C(N)C1=O (configuration not stated)	0.69
8) CCCCC1Cc2cc(OC)ccc2-c2nc3cc(OC)ccc3n21 (configuration not stated) (tested in a mixture with another compound)	1.42

**Q:** State its log10(TGI): COc1cc(-c2ccc(-[n+]3nc(-c4ccc([N+](=O)[O-])cc4)nn3-c3ccc([N+](=O)[O-])cc3)c(OC)c2)ccc1-[n+]1nc(-c2ccc([N+](=O)[O-])cc2)nn1-c1ccc([N+](=O)[O-])cc1
**A:** 0.82

**Q:** State its log10(TGI): Cc1nc2c(n1CCCl)C(=O)c1ccccc1C2=O
**A:** 1.46

**Q:** State its log10(TGI): Cc1ccc(-c2nc3nc(-c4ccc(Cl)cc4)nc(N4CCCNCC4)c3o2)cc1
**A:** 0.51

**Q:** State its log10(TGI): CCOC(=O)c1ccc2[nH]c(Cc3[nH]c4ccc(C(=O)OCC)cc4c3C)c(C)c2c1
**A:** 1.69

**Q:** State its log10(TGI): O=C1CC(N2C(=O)/C(=C/C(Cl)=C\c3ccc([N+](=O)[O-])cc3)SC2=S)C(=O)N1c1ccc(Cl)cc1 (configuration not stated)
**A:** 0.53

**Q:** State its log10(TGI): c1ccc2c(OCC3CO3)ccc(OCC3CO3)c2c1 (configuration not stated)
**A:** 0.89

* * *

test system: UACC-257 melanoma; experiment: NCI tumour cell line growth inhibition, 48 h
# TGI annotations

Look over these answered cases.
1. Cc1c2c(cc3c1[nH]c1ccccc13)C(c1ccc(F)cc1)=NCC2	2.46 µM
2. C#CCOC(=O)C(N)CS (stereo unspecified)	> 100 µM
3. O=C1C(Br)=C(c2ccccc2)C(c2ccccc2)=C1c1ccccc1	9.67 µM
4. C[C@@H](Oc1cc(-c2cnn(C3CC4(CCNCC4)C3)c2)cnc1N)c1c(F)ccc(Cl)c1Cl	2.99 µM
5. O=c1oc2ccccc2c(O)c1C(c1ccc2ccccc2c1)c1c(O)c2ccccc2oc1=O	> 100 µM

Next:
**Q:** State its TGI: CC(=O)C1(c2ccccc2)CCCN(C)CC1 (stereo unspecified)
**A:** > 100 µM

* * *

test system: MOLT-4 leukemia; assay: NCI tumour cell line growth inhibition, 48 h; in the data active = GI50 below about 0.43 µM; inactive = the rest
Return exactly one item of active, inactive

These recorded examples may help you get a feel for the data.
1. O=C1CC(N2C(=O)/C(=C/C(Cl)=C\c3ccc([N+](=O)[O-])cc3)SC2=S)C(=O)N1c1ccc(Cl)cc1 (centres undefined)	inactive
2. O=C(Nc1nc(-c2ccc(Cl)cc2)cs1)c1ccc(O)c(O)c1	inactive
3. COc1cc(C(=O)O)ccc1NC(=O)[C@@H]1N[C@@H](CC(C)(C)C)[C@](C#N)(c2ccc(Cl)cc2F)[C@H]1c1cccc(Cl)c1F	active
4. CCC(=O)Nc1ccc2c(c1)CN1C(=O)c3ccccc3C1=N2	inactive
5. COc1cc(/C=C/C(=O)CC(=O)/C=C/c2ccc(OC(=O)CCNC34CC5CC(CC(C5)C3)C4)c(OC)c2)ccc1OC(=O)CCNC12CC3CC(CC(C3)C1)C2	inactive
6. COc1cc(N)ccc1Nc1c2ccccc2nc2ccccc12	inactive

**Q:** What did the test return for Cc1cc(Nc2ncc(Cl)c(Nc3ccccc3S(=O)(=O)C(C)C)n2)c(OC(C)C)cc1C1CCNCC1 ?
**A:** inactive

**Q:** What did the test return for CN(C)c1ccc2[nH]c(O)c(C=Nc3ccc(S(N)(=O)=O)cc3)c2c1 ?
**A:** inactive

**Q:** What did the test return for CCOC(=O)c1ccc(C(O)CC(=O)OC(C)(C)C)[nH]1 (centres undefined) ?
**A:** inactive

* * *

tested on: HCT-15 colon; assay: NCI tumour cell line growth inhibition, 48 h; in the data active = GI50 below about 0.43 µM; inactive = the rest
Return exactly one item of active, inactive

1) C=C1C(=O)O[C@H]2[C@H]1CC/C(COC(=O)NCCc1c[nH]c3ccccc13)=C\CC[C@@]1(C)O[C@@H]21	inactive
2) O=C1CN2CCC1C/C2=C\c1ccnc2c(Cl)cccc12 (configuration not stated)	inactive
3) O=C(Nc1cccc(-c2nc3ccccc3[nH]2)c1)c1cccc(NC(=O)c2ccco2)c1	inactive

Next up:
**Q:** What did the test return for COc1ccc2c(c1)C(=O)c1c-2c(N2CCN(C(=O)CN(C)C)CC2)nc2ccccc12 ?
**A:** inactive

* * *

# TGI annotations
tested on: K-562 leukemia; experiment: NCI tumour cell line growth inhibition, 48 h
Report as a plain number; the unit µM is understood.

1) O=C1c2ccccc2-c2ccc(O)cc21	94.7
2) CCOC(=O)c1c(-c2ccc(Cl)cc2)c(C#N)c(=S)n(C2OC(CO)C(O)C(O)C2O)c1-c1ccccc1 (configuration not stated)	70.9
3) CC(=O)C1=C(O)C2(O)C(=O)c3c(c(C)c4ccc(C)c(O)c4c3O)CC2C(N)C1=O (configuration not stated)	12.2
4) COc1cc(/C=C2\C[C@H]3[C@@H]4CC=C5C[C@@H](OC(C)=O)CC[C@]5(C)[C@H]4CC[C@]3(C)[C@H]2OC(C)=O)ccc1OCCCn1ccnc1	19.7

Next:
**Q:** State its TGI: N#CCc1[nH]nc2nc(SCc3ccccc3)nc(N3CCCCC3)c12
**A:** 34.6

* * *

system: HL-60(TB) leukemia; assay: NCI tumour cell line growth inhibition, 48 h
Class Condition met: TGI at least 3 µM. Class Condition not met: TGI below 3 µM.

1. O=C(Nc1nc(-c2ccc(Cl)cc2)cs1)c1ccc(O)c(O)c1	Condition met
2. CCCN(CCC)C(=S)N/N=C/c1cccc(C)n1	Condition not met
3. CCOC(=O)C1=C(C)C2C3C(=O)NC(=O)C3C1(C)C1C(=O)NC(=O)C21 (stereo not given)	Condition met
4. COc1ccc(C(=O)c2ccc(OC)cc2OC)cc1	Condition met
5. Cn1cc(C(=O)/C(Cl)=C(\Cl)C(=O)O)c2ccccc21	Condition met

**Q:** Is TGI for c1ccc2c(c1)n1c(N3CCOCC3)[n+]3ccccc3c1c1c3cccc[n+]3c(N3CCOCC3)n21 at or above 3 µM?
**A:** Condition met

**Q:** Is TGI for N#CC(c1ccc(Cl)cc1)c1cccc(Cl)n1 (stereo not given) at or above 3 µM?
**A:** Condition met

**Q:** Is TGI for Nc1nc(F)nc2c1ncn2C1OC(COP(=O)(O)O)C(O)C1O (stereo not given) at or above 3 µM?
**A:** Condition met

**Q:** Is TGI for Cc1ccc(-c2nc3nc(-c4ccc(Cl)cc4)nc(N4CCCNCC4)c3o2)cc1 at or above 3 µM?
**A:** Condition met

**Q:** Is TGI for COc1cc2c(cc1OCCCCCN1CCN(c3cc(=O)oc4c(C)c(OC)ccc34)CC1)N=C[C@@H]1CCCN1C2=O at or above 3 µM?
**A:** Condition not met
